- Tested on: HIV-1 pseudotyped virus
- Run description: HIV-1 pseudotyped virus assay (luciferase reporter gene, single cycle of infection)
- Format: cell-based
- Condition notes: Human immunodeficiency virus 1, CCR5, 72 h, read-out: Activity (antiviral activity, IC50)
Below: a set of entries, each annotated with reported IC50.
Result type: IC50

>>> result("CC1CN(C(=O)c2ccccc2)CCN1S(=O)(=O)c1ccc(-c2nncc3ccccc23)s1 (stereo not shown)")
"> 5 µM"
>>> result("CCOC(=O)c1sc(SC)nc1-n1cc(-c2ccc(S(=O)(=O)N3CCN(C(=O)c4ccccc4)C[C@H]3C)s2)nn1")
"> 5 µM"
>>> result("COc1cc(-c2ccc(C(=O)C(=O)N3CCN(C(=O)c4ccccc4)C[C@H]3C)cc2)nc(OC)n1")
"< 5 µM"
>>> result("C[C@@H]1CN(C(=O)c2ccccc2)CCN1S(=O)(=O)c1ccc(-n2cccn2)cc1")
"> 5 µM"
>>> result("C[C@@H]1CN(C(=O)c2ccccc2)CCN1S(=O)(=O)c1ccc(-c2csnn2)s1")
"> 5 µM"
>>> result("Cc1ccnc(-c2ccc(C(=O)C(=O)N3CCN(C(=O)c4ccccc4)CC3C)cc2)n1 (stereo not shown)")
"< 5 µM"
>>> result("C[C@@H]1CN(C(=O)c2ccccc2)CCN1C(=O)C(=O)c1ccc(Br)c(Cl)c1")
"< 5 µM"
>>> result("CC1CN(C(=O)c2ccccc2)CCN1C(=O)C(=O)c1ccc(-n2nccn2)cc1 (stereo not shown)")
"< 5 µM"
>>> result("C[C@@H]1CN(C(=O)c2ccccc2)CCN1C(=O)C(=O)c1cc(Cl)c(-c2cc[nH]n2)c(Cl)c1N")
"> 5 µM"
>>> result("CC1CN(C(=O)c2ccccc2)CCN1C(=O)C(=O)c1ccc(-c2cnn(C)c2)cc1 (stereo not shown)")
"< 5 µM"
>>> result("C[C@@H]1CN(C(=O)c2ccccc2)CCN1S(=O)(=O)c1ccc(C(=O)c2ccsc2)s1")
"> 5 µM"
>>> result("C[C@@H]1CN(C(=O)c2ccccc2)CCN1C(=O)C(=O)c1ccc(-c2cscn2)s1")
"< 5 µM"
>>> result("C[C@@H]1CN(C(=O)c2ccccc2)CCN1S(=O)(=O)c1ccc(-c2cn(Cc3ccccc3)nn2)cc1")
"> 5 µM"
>>> result("CC1CN(C(=O)c2ccccc2)CCN1S(=O)(=O)c1ccc(-c2ccc3ccccc3n2)s1 (stereo not shown)")
"> 5 µM"
>>> result("CC1CN(C(=O)c2ccccc2)CCN1S(=O)(=O)c1ccc(-n2cncn2)cc1 (stereo not shown)")
"> 5 µM"
>>> result("C[C@@H]1CN(C(=O)c2ccccc2)CCN1S(=O)(=O)c1ccc(C(=O)c2cccs2)cc1")
"> 5 µM"

----------
Recorded pIC50 for the following compounds
- Test system: HIV-1 pseudotyped virus
- Run description: HIV-1 pseudotyped virus assay (luciferase reporter gene, single cycle of infection)
- Format: cell-based
- Condition notes: Human immunodeficiency virus 1, CCR5, 72 h, read-out: Activity (antiviral activity, IC50)
- Description: In this example are illustrated experimental procedures for determining biological activity, such as antiviral activity. For determining biological activity, an HIV-1 infection assay was used to determine the antiviral potency for compounds of the present invention. […] The compounds of the present invention being tested for antiviral activity were serially diluted and dose responses determined in duplicate in two separate experiments. […]
pIC50: −log10 of the molar value.
Result type: pIC50

>>> result("CC1CN(C(=O)c2ccccc2)CCN1S(=O)(=O)c1ccc(-c2ccc(-c3ccccc3)nn2)s1 (stereo not shown)")
"< 5.30"
>>> result("C[C@@H]1CN(C(=O)c2ccccc2)CCN1C(=O)C(=O)c1c[nH]c(-c2ccc3[nH]ccc3c2)c1")
"< 5.30"
>>> result("CC1CN(C(=O)c2ccccc2)CCN1S(=O)(=O)c1ccc(-n2cccn2)cc1 (stereo not shown)")
"< 5.30"
>>> result("C[C@@H]1CN(C(=O)c2ccccc2)CCN1C(=O)C(=O)c1ccc(-n2cncn2)c(Cl)c1")
"< 5.30"
>>> result("C[C@@H]1CN(C(=O)c2ccccc2)CCN1C(=O)C(=O)c1ccc(-c2ccn[nH]2)nc1")
"> 5.30"
>>> result("C[C@@H]1CN(C(=O)c2ccccc2)CCN1C(=O)C(=O)c1ccc(-c2cc[nH]n2)cc1F")
"> 5.30"
>>> result("C[C@@H]1CN(C(=O)c2ccccc2)CCN1S(=O)(=O)c1ccc(C(=O)c2ccon2)s1")
"< 5.30"
>>> result("C[C@@H]1CN(C(=O)c2ccccc2)CCN1S(=O)(=O)c1ccc(-c2c[nH]nn2)s1")
"< 5.30"
>>> result("COc1cc(-n2ccnn2)c(Cl)cc1C(=O)C(=O)N1CCN(C(=O)c2ccccc2)CC1")
"> 5.30"
>>> result("C[C@@H]1CN(C(=O)c2ccccc2)CCN1C(=O)C(=O)c1cccc(-c2ccccn2)c1")
"< 5.30"
>>> result("C[C@@H]1CN(C(=O)c2ccccc2)CCN1C(=O)C(=O)c1ccc(-n2cccn2)nc1")
"> 5.30"
>>> result("Cc1nc2cc(-c3ccc(S(=O)(=O)N4CCN(C(=O)c5ccccc5)CC4C)s3)ccc2s1 (stereo not shown)")
"< 5.30"
>>> result("Cc1noc(C)c1-c1ccc(C(=O)C(=O)N2CCN(C(=O)c3ccccc3)C[C@H]2C)cn1")
"< 5.30"
>>> result("CC1CN(C(=O)c2ccccc2)CCN1S(=O)(=O)c1cccc(-n2cccn2)c1 (stereo not shown)")
"< 5.30"
>>> result("CC1CN(C(=O)c2ccccc2)CCN1S(=O)(=O)c1ccc(-c2ccc(-c3ccno3)s2)s1 (stereo not shown)")
"> 5.30"
>>> result("Cc1cc(-c2ccc(C(=O)C(=O)N3CCN(C(=O)c4ccccc4)C[C@H]3C)c(O)c2)on1")
"< 5.30"
